biological target: fMet-Leu-Phe receptor (Homo sapiens); assay: Agonist activity at human FPR1 expressed in RBL-2H3 cells assessed as induction of calcium mobilization; type: functional, cell-based
Calls of active or inactive are those of the source.
Outcome codes: class 1 for active, class 0 for inactive

{"COMPOUND": "COc1cccc(NC(=O)CSc2nc3cc(OC)ccc3[nH]2)c1", "ASSIGNED_CLASS": "class 1"}
{"COMPOUND": "O=C1NCC(c2ccccc2)C1C(=O)N/N=C/C=C/c1ccc(Br)cc1 (configuration not stated)", "ASSIGNED_CLASS": "class 0"}
{"COMPOUND": "O=C(CN1CCN(c2ccccn2)CC1)Nc1ccc(Cl)cc1", "ASSIGNED_CLASS": "class 0"}
{"COMPOUND": "CCOc1ccc2[nH]c(SCC(=O)Nc3ccc(OC)cc3)nc2c1", "ASSIGNED_CLASS": "class 1"}
{"COMPOUND": "O=C(CN1CCN(c2ccccc2)CC1)Nc1cccc(Br)c1", "ASSIGNED_CLASS": "class 0"}
{"COMPOUND": "COc1ccc(CCNC(=O)Nc2ccc(Cl)cc2Cl)cc1", "ASSIGNED_CLASS": "class 0"}
{"COMPOUND": "CSCC[C@H](NC(=O)[C@H](Cc1ccc(O)cc1)NC(=O)[C@H](CCCCN)NC(=O)[C@@H](N)Cc1c[nH]c2ccccc12)C(=O)N[C@H](C(=O)N[C@H](CCSC)C(N)=O)C(C)C", "ASSIGNED_CLASS": "class 1"}
{"COMPOUND": "COc1ccc2[nH]c(SCC(=O)Nc3ccc(OC)c(OC)c3)nc2c1", "ASSIGNED_CLASS": "class 1"}
{"COMPOUND": "CC1(C)CC(=O)C(C(c2cccc(OCc3ccccc3)c2)C2C(=O)CC(C)(C)CC2=O)C(=O)C1", "ASSIGNED_CLASS": "class 1"}
{"COMPOUND": "CCOc1ccc(NC(=O)CSc2nc3cc(OC)ccc3[nH]2)cc1", "ASSIGNED_CLASS": "class 1"}
{"COMPOUND": "O=C(CN1CCN(c2ccccc2)CC1)Nc1ccccc1Br", "ASSIGNED_CLASS": "class 0"}
{"COMPOUND": "O=C(CSc1nc2ccccc2[nH]1)Nc1ccc([N+](=O)[O-])cc1", "ASSIGNED_CLASS": "class 0"}
{"COMPOUND": "COc1ccc(NC(=S)NN2C(=O)CSC2c2c[nH]c3ccccc23)cc1 (configuration not stated)", "ASSIGNED_CLASS": "class 1"}
{"COMPOUND": "COc1cccc(Cc2cc(C)nn(CC(=O)Nc3ccc4c(c3)OCO4)c2=O)c1", "ASSIGNED_CLASS": "class 1"}
{"COMPOUND": "COc1cc(/C=N/NC(=O)c2ccc3c(c2)OCO3)ccc1OCc1ccccc1", "ASSIGNED_CLASS": "class 1"}
{"COMPOUND": "O=C(NCCc1ccc(Cl)cc1)Nc1ccccc1[N+](=O)[O-]", "ASSIGNED_CLASS": "class 0"}
{"COMPOUND": "COc1ccc2[nH]c(SCC(=O)Nc3ccc(Br)cc3)nc2c1", "ASSIGNED_CLASS": "class 1"}
{"COMPOUND": "O=C(CN1CCN(c2ccccc2)CC1)Nc1ccccc1", "ASSIGNED_CLASS": "class 0"}
{"COMPOUND": "Cc1cccc2[nH]c(SCC(=O)Nc3ccc(Cl)c([N+](=O)[O-])c3)nc12", "ASSIGNED_CLASS": "class 0"}
{"COMPOUND": "Cc1cccc(NC(=O)NCCc2ccc(Cl)cc2)c1", "ASSIGNED_CLASS": "class 0"}
{"COMPOUND": "O=C(CSc1nc2ccccc2[nH]1)Nc1cccc(Br)c1", "ASSIGNED_CLASS": "class 0"}
{"COMPOUND": "O=C(Cc1ccccc1)N/N=C/C=C/c1ccccc1[N+](=O)[O-]", "ASSIGNED_CLASS": "class 0"}
{"COMPOUND": "COc1ccccc1/C=C/C=N/NC(=O)Cc1cccs1", "ASSIGNED_CLASS": "class 0"}
{"COMPOUND": "COc1ccc2[nH]c(SCC(=O)Nc3ccccc3OC)nc2c1", "ASSIGNED_CLASS": "class 1"}
{"COMPOUND": "O=C(CSc1nc2ccccc2[nH]1)Nc1ccccc1", "ASSIGNED_CLASS": "class 0"}
{"COMPOUND": "COc1ccc(NC(=O)Nc2ccc(C(=O)N3CCCCC3)cc2)cc1", "ASSIGNED_CLASS": "class 1"}
{"COMPOUND": "O=C(CSc1nc2ccccc2s1)N/N=C/C=C/c1ccccc1[N+](=O)[O-]", "ASSIGNED_CLASS": "class 0"}
{"COMPOUND": "Cc1ccc(CCNC(=O)Nc2ccc(F)cc2)cc1", "ASSIGNED_CLASS": "class 0"}
{"COMPOUND": "COc1ccc2[nH]c(SCC(=O)Nc3ccc([N+](=O)[O-])cc3)nc2c1", "ASSIGNED_CLASS": "class 1"}
{"COMPOUND": "CC(C)c1c(NC(=O)Nc2ccc(Cl)cc2)c(=O)n(-c2ccccc2)n1C", "ASSIGNED_CLASS": "class 1"}
{"COMPOUND": "O=C(CN1CCN(c2ccccc2Cl)CC1)Nc1ccccc1", "ASSIGNED_CLASS": "class 0"}
{"COMPOUND": "Cc1ccc2[nH]c(SCC(=O)Nc3cccc(C(F)(F)F)c3)nc2c1", "ASSIGNED_CLASS": "class 0"}
{"COMPOUND": "CCCC(C)c1ccc(OCC(=O)N/N=C/c2ccsc2)cc1 (configuration not stated)", "ASSIGNED_CLASS": "class 1"}
{"COMPOUND": "COc1ccc2[nH]c(SCC(=O)Nc3ccc(Cl)cc3)nc2c1", "ASSIGNED_CLASS": "class 1"}
{"COMPOUND": "O=C(NCCc1ccccc1)Nc1ccccc1", "ASSIGNED_CLASS": "class 0"}
{"COMPOUND": "COc1ccc2[nH]c(SCC(=O)Nc3ccccc3)nc2c1", "ASSIGNED_CLASS": "class 1"}
{"COMPOUND": "O=C(CN1CCN(c2ccccc2)CC1)Nc1ccc(F)c(Cl)c1", "ASSIGNED_CLASS": "class 0"}

----------
molecular target: N-formyl peptide receptor 2 (Homo sapiens) (UniProt P25090); assay: Agonist activity at human FPR2 expressed in RBL-2H3 cells assessed as induction of calcium mobilization; type: functional, cell-based
Sequence (P25090 whole entry): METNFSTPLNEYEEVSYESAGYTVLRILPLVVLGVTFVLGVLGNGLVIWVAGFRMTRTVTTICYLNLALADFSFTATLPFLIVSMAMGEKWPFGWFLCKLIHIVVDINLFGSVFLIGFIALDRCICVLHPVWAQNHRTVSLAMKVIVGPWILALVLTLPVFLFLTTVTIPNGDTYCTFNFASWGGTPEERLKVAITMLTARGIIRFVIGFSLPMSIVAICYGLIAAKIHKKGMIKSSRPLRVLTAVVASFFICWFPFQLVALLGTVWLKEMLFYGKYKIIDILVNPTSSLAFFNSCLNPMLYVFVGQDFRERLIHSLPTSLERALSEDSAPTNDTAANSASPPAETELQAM
Activity calls are given as the source filed them.

{"COMPOUND": "O=C(CN1CCN(c2ccc(F)cc2)CC1)Nc1ccc(Br)cc1", "Activity": "Active"}
{"COMPOUND": "Cc1c(NC(=O)Nc2ccc(Br)cc2)c(=O)n(-c2ccccc2)n1C", "Activity": "Active"}
{"COMPOUND": "O=C(Cc1ccc(Br)cc1)N/N=C/C=C/c1ccccc1[N+](=O)[O-]", "Activity": "Active"}
{"COMPOUND": "COc1ccc(CCNC(=O)Nc2ccc(Br)cc2)cc1", "Activity": "Active"}
{"COMPOUND": "O=C(CNc1ccccc1)N/N=C/C=C/c1ccccc1[N+](=O)[O-]", "Activity": "Active"}
{"COMPOUND": "Cc1ccc2[nH]c(SCC(=O)Nc3cccc(C(F)(F)F)c3)nc2c1", "Activity": "inactive"}
{"COMPOUND": "O=C(CN1CCN(c2ccccc2Cl)CC1)Nc1ccccc1", "Activity": "inactive"}
{"COMPOUND": "O=C(CSc1nc2ccccc2s1)N/N=C/C=C/c1ccccc1[N+](=O)[O-]", "Activity": "inactive"}
{"COMPOUND": "CCc1c(NC(=O)Nc2ccc(Cl)cc2)c(=O)n(-c2ccccc2)n1C", "Activity": "Active"}
{"COMPOUND": "O=C(NCCc1ccc(Cl)cc1)Nc1ccccc1[N+](=O)[O-]", "Activity": "inactive"}
{"COMPOUND": "O=C(Cc1ccccc1)N/N=C/C=C/c1ccccc1[N+](=O)[O-]", "Activity": "inactive"}
{"COMPOUND": "CCC(Nc1ccc(OC)cc1)C(=O)N/N=C(C)/C=C/c1ccccc1 (stereo unspecified)", "Activity": "Active"}
{"COMPOUND": "O=C(CN1CCN(c2ccccc2)CC1)Nc1cccc(Br)c1", "Activity": "inactive"}
{"COMPOUND": "Cc1c(Cl)cccc1N1CCN(CC(=O)Nc2ccc(Br)cc2)CC1", "Activity": "Active"}
{"COMPOUND": "O=C(CSc1nc2ccccc2[nH]1)Nc1ccc([N+](=O)[O-])cc1", "Activity": "inactive"}
{"COMPOUND": "CSCC[C@H](NC(=O)[C@H](Cc1ccc(O)cc1)NC(=O)[C@H](CCCCN)NC(=O)[C@@H](N)Cc1c[nH]c2ccccc12)C(=O)N[C@H](C(=O)N[C@H](CCSC)C(N)=O)C(C)C", "Activity": "Active"}
{"COMPOUND": "CCCC(C)c1ccc(OCC(=O)N/N=C/c2ccsc2)cc1 (stereo unspecified)", "Activity": "Active"}
{"COMPOUND": "COc1ccc(CCNC(=O)Nc2ccc(F)cc2)cc1", "Activity": "Active"}
{"COMPOUND": "O=C(CN1CCN(c2cccc(Cl)c2)CC1)Nc1ccc(Br)cc1", "Activity": "Active"}
{"COMPOUND": "O=C(N/N=C/c1ccc(-c2cccc(Br)c2)o1)c1cccnc1", "Activity": "Active"}
{"COMPOUND": "Cc1cccc(NC(=O)NCCc2ccc(Cl)cc2)c1", "Activity": "inactive"}
